EXPERIMENTAL DETAILS: Aqueous solubility at pH 7
Assay type: physicochemical
MEASUREMENT LABEL: solubility (µg/mL)
Numbers only here, please. The scale is µg/mL.

Ask: Fill blank: measured solubility of the compound COc1cc2c(cc1OC)CN(C(=O)C(Cc1ccccc1)c1ccccc1)CC2 (racemic) is ____.
Reply: 810

* * *

ASSAYED TARGET: Orexin receptor type 2 (Homo sapiens, UniProt O43614)
EXPERIMENTAL DETAILS: Antagonist activity at OX2 receptor by FLIPR
Format: functional
Kindly state IC50 for each of the entries shown.
Provide the reading as a plain figure in nM.

Ask: # query: IC50 of entry CCN(Cc1cc(C)n(C)n1)C(=O)CN(c1cc(N(C)C)ccc1Cl)S(=O)(=O)c1ccc(OC)c(OC)c1
Reply: 4

Ask: How about this compound: CCN(Cc1ccn(C)n1)C(=O)CN(c1cc(N(C)C)ccc1Cl)S(=O)(=O)c1ccc(OC)c(OC)c1
Reply: 7

Ask: Try this compound next: CCc1nc(OC)c2n1CCN([C@@H](C(=O)NC)c1ccccc1)[C@H]2CCc1ccc(C)c(C)c1
Reply: 4

Ask: And what about the compound Cc1cccc(-c2sc(CCCO)nc2C(=O)N2C[C@H]3C[C@H]3[C@H]2CNC(=O)c2c(C)nc3sccn23)c1 ?
Reply: 17

Ask: Now give it for CCN(Cc1cccc(C)n1)C(=O)CN(c1cc(N(C)C)ccc1Cl)S(=O)(=O)c1ccc(OC)c(OC)c1 too.
Reply: 5

Ask: Similarly, CCc1nc(OC)c2n1CCN([C@@H](C(=O)NC)c1ccccc1)[C@H]2CCc1ccc(C)c(F)c1 ?
Reply: 2

* * *

EXPERIMENTAL DETAILS: Selectivity of Ki for OX1 receptor to Ki for OX2 receptor
Please provide measured Ratio for the entries that follow.

Ask: Can you share its Ratio? I mean this compound: Cc1ccc(NC(=O)N[C@H]2COC(C)(C)O[C@H]2c2ccccc2)c(C)c1
Reply: 70

Ask: Also, CC1(C)OC[C@H](NC(=O)Nc2ccc(Cl)cc2Cl)[C@H](c2ccccc2)O1 please.
Reply: 100

Ask: Can you check CC1(C)OC[C@H](NC(=O)Nc2ccc(Br)cc2Br)[C@H](c2ccccc2)O1 next?
Reply: 600

Ask: Do the same for Cc1ccc(Cl)c(NC(=O)N[C@H]2COC(C)(C)O[C@H]2c2ccccc2)c1 please
Reply: 80

Ask: Here is the next compound: CC1(C)OC[C@H](NC(=O)Nc2c(Cl)cccc2Cl)[C@H](c2ccccc2)O1
Reply: 2

Ask: Also, CC1(C)OC[C@H](NC(=O)Nc2ccccc2F)[C@H](c2ccccc2)O1 please.
Reply: 20

Ask: Input CC(C)c1ccccc1NC(=O)N[C@H]1COC(C)(C)O[C@H]1c1ccccc1
Reply: 4

* * *

ASSAYED TARGET: Orexin receptor type 2 (Homo sapiens, UniProt O43614)
Sequence (O43614 whole entry): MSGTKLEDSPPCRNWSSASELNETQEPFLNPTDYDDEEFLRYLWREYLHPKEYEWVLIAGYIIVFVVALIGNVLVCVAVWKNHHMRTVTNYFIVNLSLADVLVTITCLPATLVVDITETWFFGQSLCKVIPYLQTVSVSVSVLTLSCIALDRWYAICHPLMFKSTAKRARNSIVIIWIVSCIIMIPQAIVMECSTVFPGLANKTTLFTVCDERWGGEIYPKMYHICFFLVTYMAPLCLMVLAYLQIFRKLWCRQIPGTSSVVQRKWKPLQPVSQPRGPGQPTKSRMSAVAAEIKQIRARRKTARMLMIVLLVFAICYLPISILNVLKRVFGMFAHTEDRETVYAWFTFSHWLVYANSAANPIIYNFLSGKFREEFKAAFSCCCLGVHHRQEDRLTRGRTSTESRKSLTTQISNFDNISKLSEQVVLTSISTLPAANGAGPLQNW
EXPERIMENTAL DETAILS: Inhibition of OX2 receptor
Hi there, I'd appreciate the recorded IC50 for every entry that follows.

Ask: Given the entry COc1cc2c(cc1OC)C(Cc1ccc(F)c(F)c1)N(CC(=O)NCc1ccccc1)CC2 (centres undefined) , what IC50 was observed with Orexin receptor type 2 (Homo sapiens, UniProt O43614)?
Reply: > 10000 nM

Ask: Same again, this time with COc1cc2c(cc1OC)C(Cc1ccc3c(c1)OCO3)N(CC(=O)NC1CCc3ccccc31)CC2 (centres undefined)
Reply: > 10000 nM

Ask: Further, for COc1ccc(CC2c3cc(OC)c(OC)cc3CCN2CC(=O)NCc2ccno2)cc1OC (racemic) ?
Reply: 10000 nM

Ask: // repeat for CCCCNC(=O)C(c1ccccc1)N1CCc2cc(OC)c(OC)cc2C1Cc1ccc(N(C)C)cc1 (centres undefined) and report
Reply: 1540 nM

Ask: // query: COc1ccc(CC2c3cc(OC)c(OC)cc3CCN2CC(=O)NC2Cc3ccccc3C2)cc1OC (racemic)
Reply: 1100 nM

Ask: Subsequent entry: CCCCNC(=O)C(c1ccccc1)N1CCc2cc(OC)c(OC)cc2C1CCc1ccc(F)c(F)c1 (centres undefined)
Reply: 19 nM

Ask: Moving on to COc1cc2c(cc1OC)C(Cc1ccc(F)c(F)c1)N(CC(=O)NC1CCc3ccccc31)CC2 (centres undefined)
Reply: > 10000 nM

Ask: Could you do the same for COc1cc2c(cc1OC)C(Cc1ccccc1)N(CC(=O)NC1CCc3ccccc31)CC2 (centres undefined) , please?
Reply: > 10000 nM

Ask: Another: COCCNC(=O)C(c1ccccc1)N1CCc2cc(OC)c(OC)cc2C1Cc1ccc2ccccc2c1 (centres undefined)
Reply: 109 nM
